details: 298.15 K; 101.33 kPa; Liquid; Pycnometric method
value-type: mass density (kg/m3)

# compound, reading-unit, test-result
measured = [
    ("CCOC(C)=O [ethyl acetate]", "kg/m3", 893.4),
    ("COC(C)(C)C", "kg/m3", 734.1),
    ("CC#N", "kg/m3", 776.3),
    ("CCCCO", "kg/m3", 805.5),
    ("CO", "kg/m3", 786.3),
    ("CCO", "kg/m3", 784.2),
    ("CC(C)O", "kg/m3", 780.6),
    ("CC(C)=O", "kg/m3", 783.8),
]
